target-entity: CD28 (human) (UniProt P10747)
assay-summary: flow cytometry, Jurkat cells (CD28)
Consider the following binders; for each one, report its MFI at 33.3 nM.
Answers are plain numbers, in MFI.

**Q:** Please give measured MFI at 33.3 nM of the following entry: CD80 variant E7D/E35D/M47I/L97Q IgV-Fc (Fc fusion) VIHVTKDVKEVATLSCGHNVSVEELAQTRIYWQKDKKMVLTMMSGDINIWPEYKNRTIFDITNNLSIVILALRPSDEGTYECVVLKYEKDAFKREHQAEVT
**A:** 273

Turning to the following binder.
**Q:** Supply measured MFI at 33.3 nM of CD80 variant H18Y/E35D/M47L IgV-Fc (Fc fusion) VIHVTKEVKEVATLSCGYNVSVEELAQTRIYWQKDKKMVLTMMSGDLNIWPEYKNRTIFDITNNLSIVILALRPSDEGTYECVVLKYEKDAFKREHLAEVT in your reply.
**A:** 5070
